Assay method text: Solubility of the compound of Formula I in various materials (HPLC with UV detector)
Assay type: physicochemical
Conditions used: 1.4% polyvinyl alcohol in water, aqueous with cosolvent or surfactant or cyclodextrin; 1.4% Poly Vinyl Alcohol in water

- Line notation: "CNc1nc(Nc2ccccc2)nc(OCC(F)(F)C(F)F)n1"
  Unit tag: "µg/mL"
  solubility: 10

* * *

Assay method text: Solubility of the compound of Formula I in various materials (HPLC with UV detector)
Format: physicochemical
Conditions used: 5% polyoxyl 35 castor oil in water, aqueous with cosolvent or surfactant or cyclodextrin

- Line notation: "CNc1nc(Nc2ccccc2)nc(OCC(F)(F)C(F)F)n1"
  solubility [µg/mL]: 480

* * *

Assay method text: Solubility of the compound of Formula I in various materials (HPLC with UV detector)
Assay type: physicochemical
Conditions used: 7% polyoxyl 40 stearate in water, aqueous with cosolvent or surfactant or cyclodextrin

- Molecule: "CNc1nc(Nc2ccccc2)nc(OCC(F)(F)C(F)F)n1 [Formula I]"
  solubility (µg/mL): 620

* * *

Assay method text: Solubility of the compound of Formula I in various materials (HPLC with UV detector)
Assay type: physicochemical
Conditions used: polyethylene glycol 400 (PEG-400), organic solvent or mixture

- Molecule: "CNc1nc(Nc2ccccc2)nc(OCC(F)(F)C(F)F)n1 [Formula I]"
  solubility / mg/mL: 14.5

* * *

Assay method text: Solubility of the compound of Formula I in various materials (HPLC with UV detector)
Assay type: physicochemical
Conditions used: purified water, water
Property name: solubility

- Line notation: "CNc1nc(Nc2ccccc2)nc(OCC(F)(F)C(F)F)n1"
  Property name: "solubility"
  Data value: "< 10 µg/mL"

* * *

Assay method text: Solubility of the compound of Formula I in various materials (HPLC with UV detector)
Type: physicochemical
Conditions used: castor oil, oil or lipid

- Compound: "CNc1nc(Nc2ccccc2)nc(OCC(F)(F)C(F)F)n1 [Formula I]"
  solubility (µg/mL): 1090

* * *

Assay method text: Solubility of the compound of Formula I in various materials (HPLC with UV detector)
Assay type: physicochemical
Conditions used: mineral oil, oil or lipid

- Line notation: "CNc1nc(Nc2ccccc2)nc(OCC(F)(F)C(F)F)n1"
  Unit tag: "µg/mL"
  solubility: 40

* * *

Assay method text: Solubility of the compound of Formula I in various materials (HPLC with UV detector)
Format: physicochemical
Conditions used: glycerine, organic solvent or mixture
Property name: solubility (µg/mL)

- Line notation: "CNc1nc(Nc2ccccc2)nc(OCC(F)(F)C(F)F)n1"
  Data value: 100
